tested on: SNB-19 CNS; experiment: NCI tumour cell line growth inhibition, 48 h
List of TGI values.
Answer with a number only, understood to be in µM.

Solved entries (count: 4):
[[record]]
compound = "CC1(C)N=C(N)N=C(N)N1c1ccc(CCCCc2ccc(Cl)cc2S(=O)(=O)F)c(Cl)c1"
reported_measurement = 21.3

[[record]]
compound = "C#CCOc1cccc(-c2ncc3cc(NC(=O)CCl)ccc3n2)c1"
reported_measurement = 3.45

[[record]]
compound = "COc1ccc(Sc2[nH]c(C(C)=O)c3ccccc23)cc1"
reported_measurement = 31.2

[[record]]
compound = "CC(C)Cc1ccc(C(C)C(=O)N2CCN(/C=C/c3ccccc3)CC2)cc1 (configuration not stated)"
reported_measurement = 22


Query: State the recorded TGI for this entry: Cc1n(Cc2ccccc2)c2c([n+]1C)C(=O)c1ccccc1C2=O
Result: 0.0916

Query: Likewise for CCOC(=O)C(C#N)C1=CC(=O)C(=O)c2ccc(OC)cc21 (configuration not stated) ?
Result: 54.8

Query: Also O=c1cc[nH]c(=O)[nH]1 ?
Result: 828

Query: Another compound to check: O=C(Nc1ccc(Nc2ccncc2)cc1)c1ccc([N+](=O)[O-])cc1
Result: 20.7

Query: Now the compound COc1cc(C2c3cc4c(cc3OC(N3CCCCC3)C2C)OCO4)cc(OC)c1O (configuration not stated)
Result: 53.7

====

system: SF-295 CNS; assay: NCI tumour cell line growth inhibition, 48 h
Experimental endpoint: TGI

Use these answered entries as a reference point.
[[record]]
compound = "CCCCCCNc1n[nH]c(=O)c2c1nnn2Cc1ccccc1"
reported_measurement = "> 100 µM"

[[record]]
compound = "Cc1ccc2c(c1)C(=S)N1CSCC1c1nncn1-2 (stereo unspecified)"
reported_measurement = "> 100 µM"

[[record]]
compound = "Nc1c(C(=O)O)nnc2ccc(Cl)cc12"
reported_measurement = "> 100 µM"

[[record]]
compound = "Cc1ccc(-n2cnc(C(=N)C#N)c2N)cc1"
reported_measurement = "> 100 µM"

[[record]]
compound = "CN1C(=O)c2ccccc2OC12C=Cc1c(ccc3ccccc13)O2 (stereo unspecified)"
reported_measurement = "12.7 µM"


Could you now consider this next compound?
Query: Value lookup for TGI; key = Cc1c(O)ccc2c(O)c(NC(=O)c3ccc4c(c3)CCC(C)(C)O4)c(=O)oc12
Result: > 100 µM

====

tested on: ACHN renal; test: NCI tumour cell line growth inhibition, 48 h
Each entry below carries its recorded TGI.

Query: // map Cc1ccc(/C=N/Nc2cc(C)c3cccc(C)c3n2)s1 to recorded TGI (system: ACHN renal)
Result: 68.5 µM

Query: Okay, and COC(=O)c1ccc(/C=C/c2cc(O)ccc2O)cc1 ?
Result: 14.1 µM

Query: And the next one, O=c1[nH]nnc2c1sc1ncccc12 ?
Result: > 100 µM

Query: Repeat for the following molecule: CC1(C)C(C#N)C1C1=C(N2CCOCC2)[C@]2(C)C(OC(=O)c3ccccc3)CC[C@@H]2C1 (stereo partly specified)
Result: > 100 µM

Query: Okay, and Cc1cn2c(=O)c3ncn(C4OC(CO)C(O)C4O)c3n(C)c2n1 (stereo unspecified) ?
Result: > 100 µM

Query: Record: CCN(CC)CCCN1CCc2c([nH]c3ccccc23)C1c1cccnc1 (stereo unspecified)
Result: > 100 µM

Query: Subsequent entry: CC(C)N(C(=O)C12C3C4C1C1C4(C#N)C3C12C#N)C(C)C (stereo unspecified)
Result: > 100 µM

Query: Okay, and N=C(N)C1CN(CCc2c[nH]c3ccccc23)C(=O)NC1=O (stereo unspecified) ?
Result: > 100 µM

Query: Same question for CCN(CC)Cc1ccc(C(=S)Nc2ccc(Cl)cc2)s1 please.
Result: 28.3 µM

Query: Try this molecule too: CN1CC(=O)N2Cc3ccccc3-n3cccc3C2C1 (stereo unspecified)
Result: > 100 µM

Query: Follow-up item: Cc1ccc2c(c1)C(=S)N1CSCC1c1nncn1-2 (stereo unspecified)
Result: > 100 µM
